- target-entity: Gal(a1-4)Gal(b1-4)Glc
- assay-procedure: glycan array binding signal (z-score within array); higher = stronger binding
- run-parameters: glycan notation: IUPAC condensed, linker removed
This is one part of a sample in which the strongest signals are shown more often than they occur.
Give glycan array binding signal (z-score) for every item shown.
API note: the answer field is a bare number with no unit suffix.

Query: glycan array binding signal (z-score); subject: SJA (Sophora japonica) (protein) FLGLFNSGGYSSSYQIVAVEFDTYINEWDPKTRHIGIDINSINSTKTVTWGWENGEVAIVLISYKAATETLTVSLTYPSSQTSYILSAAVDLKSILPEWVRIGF
Result: -0.134

Query: Can you share its glycan array binding signal (z-score)? I mean this binder: R410P1E11 (Tachypleus tridentatus), TAL2_TACTR (protein) MEKGTPPTHDSDNWMGRAKEIGNGGWDQFQFLFFDPNGYLYAVSNDKLYKASPPQSDTDNWIARATEIGSGGWSGFKFLFFHPNGYLYAVRGQRFYKALPPVSNQD
Result: -0.323
